System: Notch signalling
test.name: Notch reporter assay (12xCSL firefly luciferase / renilla luciferase, HEK293T Notch1ΔE reporter cell line clone #A1-11)
Type: cell-based
setup.conditions: 9p dose response; averaged over replicates; read-out: 9p Notch reporter assay averaged IC50s
observable: pIC50
Conceptually, pIC50 converts a concentration in mol/L into minus its log10.

compound="NC(=O)[C@@H](CC1CC1)[C@@H](CCC(F)(F)F)C(=O)N[C@H]1N=C(c2ccccc2)c2cccc(F)c2NC1=O [BMS-983970, reference compound]" observed=8.92

Turning now to a further compound:
Task: Please give the measured pIC50 for this compound: C[C@H](NC(=O)Cc1cc(F)cc(F)c1)C(=O)N[C@H](C(=O)OC(C)(C)C)c1ccccc1 [DAPT, reference compound]
Result: 6.55

====

system.under.test: γ-secretase complex (Homo sapiens, UniProt P49768)
test.name: APP-C99 counter assay (GSI reporter assay)
Assay type: cell-based
setup.conditions: 9p dose response; AUCs averaged when replicates available
Is AUC 9p APP-counter assay at least 300? Then criterion met. If not, criterion not met.

For orientation, consider the following solved cases.
molecule="CC(C)(C(=O)NCC(F)(F)C(F)(F)F)C(=O)N[C@@H]1C(=O)Nc2ccccc2-c2ccccc21 [RO4929097, reference compound]" group_label="criterion not met"
molecule="C[C@H](NC(=O)Cc1cc(F)cc(F)c1)C(=O)N[C@@H]1C(=O)N(C)c2ccccc2-c2ccccc21 [YO-01027, reference compound]" group_label="criterion not met"
molecule="C[C@H](NC(=O)Cc1cc(F)cc(F)c1)C(=O)N[C@H](C(=O)OC(C)(C)C)c1ccccc1 [DAPT, reference compound]" group_label="criterion met"
molecule="C[C@H](NC(=O)[C@@H](O)c1cc(F)cc(F)c1)C(=O)N[C@@H]1C(=O)N(C)c2ccccc2-c2ccccc21 [LY-411575, reference compound]" group_label="criterion not met"
molecule="NC(=O)[C@@H](CC1CC1)[C@@H](CCC(F)(F)F)C(=O)N[C@H]1N=C(c2ccccc2)c2cccc(F)c2NC1=O [BMS-983970, reference compound]" group_label="criterion not met"

Task: Form field: AUC 9p APP-counter assay at least 300? Entry: CC(C)(C)c1ccc(Oc2ccc(N)cn2)cc1 [CB-103, reference compound]
Result: criterion met

====

system.under.test: γ-secretase complex (Homo sapiens)
test.name: APP-C99 counter assay (GSI reporter assay)
Format: cell-based
setup.conditions: 10 µM; sheet conf vs counter 10 µM
observable: Counter screen (Hek APP-C99)
A bare number is all that is needed in reply.

compound="COc1ccc2cc(C(=O)N3CCC(c4ccncc4)CC3)[nH]c2c1 [CBK283799]" system_under_test="γ-secretase complex (Homo sapiens)" observed=49.5
compound="COc1ccc(-c2noc([C@@H]3Cc4[nH]cnc4CN3C(=O)CCC(=O)O)n2)cc1 [CBK288967]" system_under_test="γ-secretase complex (Homo sapiens)" observed=62.4
compound="C[C@@H]1C(=O)O[C@H]2[C@H]1CC[C@@]1(C)Cc3sc(NC(=O)CCC(=O)O)nc3[C@@H](C)[C@H]21 [CBK289429]" system_under_test="γ-secretase complex (Homo sapiens)" observed=23.6
compound="Nc1ccc(Sc2nccnc2N2CCCC2)cc1 [CBK089520]" system_under_test="γ-secretase complex (Homo sapiens)" observed=34.9

Turning now to a further compound:
Task: Please give the measured Counter screen (Hek APP-C99) for this compound: COc1cc(Nc2cc(-c3ccccc3N(C)C)ncn2)cc(OC)c1OC [CBK090702]
Result: 148.1

====

system.under.test: γ-secretase complex (Homo sapiens)
test.name: APP-C99 counter assay (GSI reporter assay)
Format: cell-based
setup.conditions: 10 µM; sheet conf vs counter 10 µM
API: label(entry) gives satisfied if the entry's Counter screen (Hek APP-C99) is strictly smaller than 80; on equality or larger values it gives not satisfied.

molecule=c1ccc2oc(CN3Cc4nc[nH]c4C[C@H]3c3nc(-c4ccc5c(c4)OCO5)no3)cc2c1 system_under_test="γ-secretase complex (Homo sapiens)" group_label="not satisfied"

Task: Is Counter screen (Hek APP-C99) of O=C(Nc1sccc1C(=O)N1CCOCC1)C(Sc1ccccc1)c1ccccc1 (stereo not drawn) strictly below 80?
Result: satisfied

Task: Is Counter screen (Hek APP-C99) of Cc1ccc(NC(=O)c2cnc(SCc3ccc(F)cc3)n(C)c2=O)cc1C strictly below 80?
Result: not satisfied

Task: Is Counter screen (Hek APP-C99) of Fc1cc(CN2CCC3(CC2)OCCc2c3[nH]c3ccc(Br)cc23)cc(F)c1F strictly below 80?
Result: not satisfied

Task: Is Counter screen (Hek APP-C99) of C[C@@H]1C(=O)O[C@H]2[C@H]1CC[C@@]1(C)Cc3sc(NC(=O)CN(C)C)nc3[C@@H](C)[C@H]21 strictly below 80?
Result: satisfied

Task: Is Counter screen (Hek APP-C99) of CC(=O)Nc1cccc(-c2ccc(Nc3cccc(N(C)C)c3)nc2)c1 strictly below 80?
Result: satisfied

Task: Is Counter screen (Hek APP-C99) of c1ccc2c(c1)CCN(c1nc3cc4c(cc3s1)OCCO4)C2 strictly below 80?
Result: satisfied

Task: Is Counter screen (Hek APP-C99) of COc1cccc(OCC2CCCN(C(=O)CCc3cnn(C)c3)C2)c1 (stereo not drawn) strictly below 80?
Result: satisfied

Task: Is Counter screen (Hek APP-C99) of O=C(Nc1ccc(O)c(-c2nc3ccccc3o2)c1)c1ccc(-c2ccc([N+](=O)[O-])cc2)o1 strictly below 80?
Result: not satisfied

====

Tested on: Notch signalling
test.name: Notch reporter assay (12xCSL firefly luciferase / renilla luciferase, HEK293T Notch1ΔE reporter cell line clone #A1-11)
Assay type: cell-based
setup.conditions: Homo sapiens, HEK-293T, 14-point; unit inferred; replicates averaged; read-out: approxiated IC50s 14p Notch reporter assay
API: label(entry) gives Criterion met if the entry's IC50 is strictly smaller than 1000 nM; on equality or larger values it gives Criterion not met.

compound="CCc1c(C(=O)N(C)Cc2cnn(C(C)C)c2)[nH]c2ccccc12 [compound A]" system_under_test="Notch signalling" group_label="Criterion not met"
compound="CC(C)(C(=O)NCC(F)(F)C(F)(F)F)C(=O)N[C@@H]1C(=O)Nc2ccccc2-c2ccccc21 [RO4929097, reference compound]" system_under_test="Notch signalling" group_label="Criterion met"
compound="COc1cccc(CNc2ccc(N3CCCCC3)cc2)c1OCc1cccs1 [compound C]" system_under_test="Notch signalling" group_label="Criterion not met"
compound="Cc1ccc2[nH]c3c(c2c1)CCOC31CCN(Cc2ccccc2-c2ccccc2)CC1 [compound B]" system_under_test="Notch signalling" group_label="Criterion met"
compound="CC(C)(C)c1ccc(Oc2ccc(N)cn2)cc1 [CB-103, reference compound]" system_under_test="Notch signalling" group_label="Criterion not met"

Okay, now this compound:
Task: Is IC50 of NC(=O)c1c(NC(=O)NCc2cccnc2)sc2c1CCC2 [compound D] strictly below 1000 nM?
Result: Criterion met

====

system.under.test: γ-secretase complex (Homo sapiens)
test.name: APP-C99 counter assay (GSI reporter assay)
Assay type: cell-based
setup.conditions: 10µM; APP-C99 counter assay
3p-DR in % of DMSO counter reference

Task: Please give the measured 3p-DR in % of DMSO counter for this compound: COc1ccc(-c2noc([C@@H]3Cc4[nH]cnc4CN3C(=O)CCC(=O)O)n2)cc1
Result: 62.4 % of DMSO

Task: Please give the measured 3p-DR in % of DMSO counter for this compound: CC(=O)Nc1cccc(-c2ccc(Nc3cccc(N(C)C)c3)nc2)c1
Result: 40.4 % of DMSO

Task: Please give the measured 3p-DR in % of DMSO counter for this compound: C[C@@H]1C(=O)O[C@H]2[C@H]1CC[C@@]1(C)Cc3sc(NC(=O)CCC(=O)O)nc3[C@@H](C)[C@H]21
Result: 23.7 % of DMSO

====

system.under.test: γ-secretase complex (Homo sapiens)
test.name: APP-C99 counter assay (GSI reporter assay)
Assay type: cell-based
setup.conditions: 25 µM; sheet "conf vs counter 25 µM"; same values given as % of DMSO in sheet "3p-DR in % of DMSO counter"
Counter screen (Hek APP-C99) reference
A bare number is all that is needed in reply.

molecule=CC(C)Nc1cncc(OCc2ccc(Cl)c(Cl)c2)n1 observed=19.5
molecule=Nc1ccc(Sc2nccnc2N2CCCC2)cc1 observed=11.6

Task: Please give the measured Counter screen (Hek APP-C99) for this molecule: C[C@@H]1C(=O)O[C@H]2[C@H]1CC[C@@]1(C)Cc3sc(NC(=O)CN(C)C)nc3[C@@H](C)[C@H]21
Result: 61.0

Task: Please give the measured Counter screen (Hek APP-C99) for this molecule: O=C(Nc1sccc1C(=O)N1CCOCC1)C(Sc1ccccc1)c1ccccc1 (stereo not drawn)
Result: 58.2

Task: Please give the measured Counter screen (Hek APP-C99) for this molecule: CC(=O)Nc1cccc(-c2ccc(Nc3cccc(N(C)C)c3)nc2)c1
Result: 38.9
